biological target: Human Cbl-b (residues 40-426) (Homo sapiens (Human)); test: Cbl-b SPR assay; type: binding; conditions: C-cbl SPR Kd vs Cbl-b SPR Kd
Sequence (Q13191 40-426): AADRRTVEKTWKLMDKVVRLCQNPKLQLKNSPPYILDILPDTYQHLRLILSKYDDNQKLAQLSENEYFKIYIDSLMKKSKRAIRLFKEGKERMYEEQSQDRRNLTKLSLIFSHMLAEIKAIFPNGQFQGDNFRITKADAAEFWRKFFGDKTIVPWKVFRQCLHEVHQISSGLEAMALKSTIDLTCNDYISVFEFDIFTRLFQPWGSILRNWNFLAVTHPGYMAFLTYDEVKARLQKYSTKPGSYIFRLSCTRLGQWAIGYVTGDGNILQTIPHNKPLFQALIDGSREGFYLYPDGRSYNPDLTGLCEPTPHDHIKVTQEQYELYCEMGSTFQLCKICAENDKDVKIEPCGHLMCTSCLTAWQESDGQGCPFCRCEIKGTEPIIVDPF
property: Fold of selectivity (×)

Please review the following examples before continuing.
| compound | unitOfMeasurement | Fold of selectivity |
| --- | --- | --- |
| CO[C@H]1C[C@@](c2cc(NC3CCCC3)nc(N3Cc4c(cc(CNC5(C)CCC5)cc4C(F)(F)F)C3=O)c2)(c2nncn2C)C1 [Compound 69] | × | 6.9 |
| CCc1cc(N2Cc3c(cc(CNC4(C)CCC4)cc3C(F)(F)F)C2=O)cc([C@]2(c3nncn3C)C[C@H](OC)C2)c1 [Compound 236] | × | 2.5 |

[a] C[C@H](NC1(C)CCC1)c1cc2c(c(C(F)(F)F)c1)CN(c1cccc([C@H](c3nncn3C)C3COC3)c1)C2=O [Compound 445]
[b] C=C[C@H](C)Nc1cc(N2Cc3c(cc(CNC4(C)CCC4)cc3C(F)(F)F)C2=O)cc([C@]2(c3nncn3C)C[C@H](OC)C2)c1 (single isomer, unassigned) [Compound 220]
[c] C[C@H](NC1(C)CCC1)c1cc2c(c(C(F)(F)F)c1)CN(c1cccc(C(c3nncn3C)C3COC3)c1)C2=O (stereo partly shown) [Compound 285]
[d] Cn1cnnc1[C@]1(c2cccc(N3Cc4c(Cl)cc(CNC5(C)CCC5)cc4C3=O)c2)C[C@H](F)C1 [Compound 246]
Form: Sort by [Fold of selectivity] Order [ ascending ] Lab note: final answer is the ordered label list. c, d, a, b

Values compiled from patent US12187709B2.
